Reference for the values: PubChem BioAssay (NCI)

Reported growth inhibition values for a set of compounds
Assay: NCI Yeast Anticancer Drug Screen. Data for the mec2-1 strain (AID 157)
Details: S. cerevisiae mec2-1 strain, at 5.0 µM (retest, dose inferred, filed as 0.5), active compounds read high
Compounds without any hit were thinned out: in the full panel of roughly 79,000, 15% have a hit.
reported.property: growth inhibition (%)

>>> print(df.to_string())
                                    compound  reported_property  numeric_result
 0            O=C1N(c2ccccc2)C(=O)N1c1ccccc1  growth inhibition             -19
 1  CN(C)CCCN=c1c2ccccc2n(O)c2cccc([N+](=O)[O-])c12  growth inhibition              23
 2           Clc1ccc2c(c1)[nH]c1c2nc2ccccn21  growth inhibition              19
 3  O=S(O)CCCCSSCC(O)C(O)CSSCCCCS(=O)O (stereo not given)  growth inhibition              12
 4      Nc1nc(N)c2nc3c4ccccc4c4ccccc4c3nc2n1  growth inhibition               1
 5  Cc1cc2c(c(Br)c1O)Oc1c(cc(C)c(O)c1Br)C21OC(=O)c2ccccc21  growth inhibition              42
 6  Fc1ccc(/C=C2\COCC3=C2NC(=S)NC3c2ccc(F)cc2)cc1 (stereo not given)  growth inhibition              28
 7            COc1ccc2cc(C(C)=O)c3ccccc3c2c1  growth inhibition             -34
 8  CC1(O)Cc2c(O)c3c(c(O)c2CC1O)C(=O)C=CC3=O (stereo not given)  growth inhibition               6
 9         Fc1cccc(CSC(=S)Nc2ccc(F)c(F)c2)c1  growth inhibition              13
10        Fc1ccc(NC(=S)SCc2ccc3c(c2)OCO3)cc1  growth inhibition               1
11  CCCCCC[C@H](C/C=C\CCCCCCCC(=O)OC)OC(C)=O  growth inhibition              -4
12  CSc1ncnc2c1ncn2C1OC(CO)C(O)C1O (stereo not given)  growth inhibition             -10
13                  Nc1ccc(Cc2ccc(Br)cc2)cc1  growth inhibition              12
14       CCCn1cnc2c(SCc3ccc(Cl)cc3)nc(N)nc21  growth inhibition              -5
15           O=Cc1cc([N+](=O)[O-])cc(CCl)c1O  growth inhibition             -52
16  NC(=O)NC(=O)C(Cc1ccc(Cl)cc1)c1ccccc1 (stereo not given)  growth inhibition              -6
17      Nc1cc2c(cc1Cl)[nH]c(=O)c1cc(Cl)ccc12  growth inhibition              27
18   CC(C)(C)c1ccc(-c2c3ccccc3cc3ccccc23)cc1  growth inhibition              -1
19  O=[N+]([O-])c1cccc2nc3ccccc3c(NCCN(CCO)CCO)c12  growth inhibition              88
20  O=C1C(Cl)=C(N2CCN(C3=C(Cl)C(=O)c4ccccc4C3=O)CC2)C(=O)c2ccccc21  growth inhibition               8
21               CN=c1sc2nc(C#N)c(C#N)nc2n1C  growth inhibition              -8
22     O=C(O)C1(Cc2ccccc2)Cc2cc3c(cc2C1)CCC3  growth inhibition              -4
23      C=C(C)C(=O)Oc1ccc(N=Nc2ccccc2)ccc1=O  growth inhibition               5
24  CC1(c2ccccc2)c2ccccc2N(c2ccccc2)C(=O)C1O (stereo not given)  growth inhibition              98
